Here the recorded pKd is given for each entry.
target: T1, Biotinylated Human Siglec-2/CD22 Protein, Fc, Avitag (ACROBiosystems, SI2-H82F8) (human, UniProt P20273 20-687, biotinylated (Avitag)); assay: SPR (Biacore 8K), CD22-Fc-biotin on SA chip, antibody as analyte, 1:1 binding model
T1 construct: Bought reagent; also called CD22 antigen; CD22-Fc-biotinylated antigen; not shown: Fc tag of the bought protein; Avitag
In textbook form, pKd equals minus log to base ten of the concentration in mol/L.

HA22 mAb (antibody, human IgG1, kappa, V domains shown, also called positive antibody HA22 mAb) VH: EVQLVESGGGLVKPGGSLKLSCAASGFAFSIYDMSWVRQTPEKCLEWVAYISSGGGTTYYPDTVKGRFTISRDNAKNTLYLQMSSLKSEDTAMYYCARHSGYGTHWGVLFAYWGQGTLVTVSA VL: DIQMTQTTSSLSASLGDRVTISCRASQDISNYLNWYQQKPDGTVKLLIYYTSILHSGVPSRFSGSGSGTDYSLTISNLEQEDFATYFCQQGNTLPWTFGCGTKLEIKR
9.62

Okay, next one:
Short answer for mAb-4 (antibody, human IgG1, kappa, V domains shown, Humanized IgG1/kappa antibody; also called V1 HC + V4 LC) VH: EVQLVESGGGLVKPGGSLRLSCAASGFAFSIYDMSWVRQAPGKCLEWVAYISSGGGTTYYPDSVKGRFTISRENAKNSLYLQMNSLKSEDTAMYYCARHSGYGTHWGVLFAYWGQGTMVTVSS VL: DIQMTQSPSTLSASVGDRVTITCRASQDISNYLNWFQQRPGQSPRLLIYYTSILHSGVPSRFSGSGSGTDYTLTISSLQPEDFATYYCQQGNTLPWTFGCGTKVEIKR : pKd was 9.84
